Target: recombinant GST-GK (Homo sapiens, UniProt P35557)
Sequence (P35557 1-465): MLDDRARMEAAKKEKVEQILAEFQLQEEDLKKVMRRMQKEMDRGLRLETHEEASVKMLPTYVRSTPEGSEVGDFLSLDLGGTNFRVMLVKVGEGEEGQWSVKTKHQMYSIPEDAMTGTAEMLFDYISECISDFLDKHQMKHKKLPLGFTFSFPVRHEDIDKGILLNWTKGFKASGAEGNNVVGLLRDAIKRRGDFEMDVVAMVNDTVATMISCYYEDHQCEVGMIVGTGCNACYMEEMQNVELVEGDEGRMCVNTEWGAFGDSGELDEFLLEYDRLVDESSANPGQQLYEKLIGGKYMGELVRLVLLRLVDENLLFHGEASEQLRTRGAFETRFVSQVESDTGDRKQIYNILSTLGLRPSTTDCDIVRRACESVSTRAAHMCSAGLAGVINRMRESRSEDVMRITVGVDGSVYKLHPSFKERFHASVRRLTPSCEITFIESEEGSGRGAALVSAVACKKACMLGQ
Experiment: in vitro assay measuring the activation of recombinant GST-GK
Settings: thioNADH-coupled assay read at 405 nm

compound: CCOCS(=O)(=O)c1ccc(C(CC2CCCC2)C(=O)Nc2nc3ccc(OC)nc3s2)cc1 (stereo not shown) [Example 1]
EC50: ~106 nM
